- runDescription: basal RPMI8226 mitochondrial membrane potential changes, profiling panel, cell-based, JC-1 fluorescence, 24 h, 100 nL compound (AID 1169); note: test concentration not given here
- testContext: RPMI8226 myeloma, JC-1 mitochondrial potential fluorescence, higher = more signal
readoutKind: z-score
Answer with a number only.

[
  {
    "molecule": "Cc1cc(C)c(C(O)C2C=CC3C(=O)N(c4ccccc4)C(=O)C3N2Nc2ccc(C#N)cc2)c(C)c1 (stereo not drawn)",
    "z-score": 0.211
  },
  {
    "molecule": "CN1C(=O)C2C=CC(C(O)c3ccccn3)N(Nc3ccccc3)C2C1=O (stereo not drawn)",
    "z-score": 0.184
  },
  {
    "molecule": "CCCN1C(=O)[C@]2(COC(c3ccc(OCCCO)cc3)=N2)Cc2ccccc21",
    "z-score": 0.391
  },
  {
    "molecule": "COCCOC(=O)N1C(=O)[C@@]2(c3cc(C#CCC(C(=O)OC)C(=O)OC)ccc31)[C@H](c1ccccc1OCCO)N1[C@H](c3ccccc3)[C@H](c3ccccc3)OC(=O)[C@H]1[C@@H]2C(N)=O",
    "z-score": -0.986
  },
  {
    "molecule": "CC(C)CNC(=O)[C@@H]1c2ccccc2C(=O)N(Cc2cc(C(F)(F)F)cc(C(F)(F)F)c2)[C@H]1c1ccc(CO)cc1",
    "z-score": 0.428
  },
  {
    "molecule": "O=C(CS)NCCCCCCNC(=O)[C@H]1C[C@H]2C(=O)NCC(=O)N2[C@H]1c1ccc(O)cc1",
    "z-score": -0.645
  },
  {
    "molecule": "COC(=O)C1=CC(CCCO)=CC(C2CC2)N(Cc2sc3ccccc3c2Cl)C=C1C(=O)OC (stereo not drawn)",
    "z-score": -0.915
  }
]

Consider the record given below.
Reported z-score for Cc1cc(C)c(C(O)C2C=CC3C(=O)N(C)C(=O)C3N2Nc2ccccc2)c(C)c1 (stereo not drawn) : what is it?
-0.207

----------
The molecules listed here are annotated with their z-score.
- runDescription: basal 3T3-L1 adipocyte mitochondrial potential changes, profiling panel, cell-based, JC-1 fluorescence, 3T3-L1 adipocytes, 24 h, 100 nL compound (AID 1168); note: test concentration not given here
- testContext: JC-1 mitochondrial fluorescence, higher = more signal, called active from +8 up or from −8 down
Reply with the value as a number alone.

[
  {
    "molecule": "O=C1O[C@H](c2ccccc2)[C@H](c2ccccc2)N2[C@H]1[C@@H](C(=O)O)[C@]1(C(=O)Nc3ccc(C#CC4=CCCCC4)cc31)[C@H]2c1ccc(OCCO)cc1",
    "z-score": -3.28
  },
  {
    "molecule": "COC(=O)c1ccc(C(O)C2C=CC3C(=O)N(C)C(=O)C3N2NC(=O)OC(C)(C)C)o1 (centres undefined)",
    "z-score": -0.429
  },
  {
    "molecule": "COCCOC(=O)N1C(=O)[C@@]2(c3cc(C#CCC(C(=O)OC)C(=O)OC)ccc31)[C@H](C(=O)N1CCCCCCC1)[C@H]1C(=O)O[C@H](c3ccccc3)[C@H](c3ccccc3)N1[C@@H]2c1ccc(OCCO)cc1",
    "z-score": -5
  }
]

# ---- query molecule ----
# query: z-score of entry COCCCNC(=O)[C@@]1(CCC(=O)OC(C)(C)C)N=C(c2ccc(OCCCO)cc2)O[C@H]1c1ccccc1CN=[N+]=[N-]
-0.736
